B1: LINE1-mini (parent)
chain: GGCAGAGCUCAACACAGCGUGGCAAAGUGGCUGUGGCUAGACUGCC

# Variants of: B1
# experiment_notes: self-cleavage, relative activity (ratio to wild type); higher = more cleavage; in vitro, sequencing; the parent is a self-cleaving ribozyme
quantity_measured: self-cleavage
Give a plain numeric answer without units written out.

Answered cases to consult:
mutation_code=G35A value=0.16
mutation_code="C3A U32C" value=0.31
mutation_code="C42U C46G" value=0.19

Check the records and state self-cleavage for G22C G40C 0.08

# return recorded self-cleavage for entry A4U U34G 0.06

Given C8G G40U , respond with its self-cleavage. 0.09

Read the entry C13G G22A and write its reported self-cleavage. 0.21

Output measured self-cleavage for this item: G5U A11G 0.02

Using the record for G35A G44U , state its measured self-cleavage. 0.09

Please supply the value of reported self-cleavage for the item C15G U34C 0.03

Could you please provide reported self-cleavage for A14C A26C ? Thanks! 0.16
